Tested on: BaF3
Experiment Summary: Antiproliferative activity against mouse BaF3 cells expressing Bcr-Abl assessed as cell growth inhibition
Assay type: functional
Assay Readout: GI50 (nM)

1) FC(F)(F)Oc1ccc(Nc2cc(NCCN3CCOCC3)ncn2)cc1 720
2) FC(F)(F)Oc1ccc(Nc2cc(-c3cn[nH]c3)ncn2)cc1 90
3) NS(=O)(=O)c1ccc(-c2cc(Nc3ccc(OC(F)(F)F)cc3)ncn2)cc1 120
4) FC(F)(F)c1ccc(Nc2cc(NCCN3CCOCC3)ncn2)cc1 920
5) FC(F)(F)Oc1ccc(Nc2cc(-c3ccc4[nH]ccc4c3)ncn2)cc1 290
6) FC(F)(F)Oc1cccc(Nc2cc(NCCN3CCOCC3)ncn2)c1 720

Data credit: ChEMBL document CHEMBL5120883
